# System: mouse asthma model induced by OVA
# assayInfo: Asthma induced by ovalbumin in Balb/c mice: IgE level in serum by ELISA
# Type: in vivo
# testSettings: Table 1-2 (2nd time); 60 mg/kg, oral
readoutLabel: Concentration of IgE in serum (ng/mL)
A number alone suffices; assume ng/mL.

Example entries begin here.
compound	readoutLabel	recordedMeasurement
CC(C)=CCC[C@](C)(O[C@@H]1OC(CO)[C@H](O)[C@H](O)C1O)C1CC[C@]2(C)C1C(=O)CC1[C@@]3(C)CC[C@H](O)C(C)(C)C3CC[C@]12C (some centres unmarked) [IC]	Concentration of IgE in serum	1575.92
CC(C)=CCC[C@](C)(O[C@H]1OC(CO)[C@@H](O)[C@H](O)C1O)C1CC[C@]2(C)C1C(=O)CC1[C@@]3(C)CC[C@H](O)C(C)(C)C3CC[C@]12C (some centres unmarked) [ID]	Concentration of IgE in serum	1264.95
CC(C)=CCC[C@](C)(O[C@@H]1OC[C@@H](O)[C@H](O)C1O)C1CC[C@]2(C)C1[C@H](O)CC1[C@@]3(C)CC[C@H](O)C(C)(C)C3CC[C@]12C (some centres unmarked) [IJ]	Concentration of IgE in serum	1622.18
CC(C)=CCC[C@](C)(O[C@@H]1OC(CO)[C@@H](O)[C@H](O)C1O)C1CC[C@]2(C)C1/C(=N\O)CC1[C@@]3(C)CC/C(=N\O)C(C)(C)C3CC[C@]12C (some centres unmarked) [IVA]	Concentration of IgE in serum	1723.86

From here, focus on the item given below.
# input Send back mouse asthma model induced by OVA Concentration of IgE in serum of CC(C)=CCC[C@](C)(O[C@@H]1OC[C@H](O)[C@H](O)C1O)C1CC[C@]2(C)C1[C@H](O)CC1[C@@]3(C)CC[C@H](O)C(C)(C)C3CC[C@]12C (some centres unmarked) [IL] only.
# output 1080.12

###

# Test system: inflammatory cells in bronchoalveolar lavage fluid of mice
# assayInfo: Determination of inflammatory cells in bronchoalveolar lavage fluid of mice (OVA asthma model)
# Format: in vivo, BALB/C mice
# Parameters: unit not given here
# testSettings: 2 mg/kg, oral
Known lymphocyte in bronchoalveolar lavage fluid of a selection of molecules
Note: the reply should be a number with no unit written.

The cases that follow already have their lymphocyte in bronchoalveolar lavage fluid on record.
molecule	recordedMeasurement
CC(C)=CCC[C@](C)(O[C@@H]1O[C@H](CO)[C@@H](O)[C@H](O)[C@H]1O)[C@H]1CC[C@]2(C)[C@@H]1[C@H](O)C[C@@H]1[C@@]3(C)CC[C@H](O)C(C)(C)[C@@H]3CC[C@]12C [CK, ginsenoside compound K, reference compound]	16.81
CC(C)=CCC[C@](C)(O[C@H]1OC(CO)[C@@H](O)[C@H](O)C1O)C1CC[C@]2(C)C1C(=O)CC1[C@@]3(C)CC[C@H](O)C(C)(C)C3CC[C@]12C (stereo partly shown) [ID]	14.38

# input Write down lymphocyte in bronchoalveolar lavage fluid measured for item CC(C)=CCC[C@](C)(O[C@@H]1OC(CO)[C@H](O)[C@H](O)C1O)C1CC[C@]2(C)C1C(=O)CC1[C@@]3(C)CC[C@H](O)C(C)(C)C3CC[C@]12C (stereo partly shown) [IC]
# output 9.30

# input Look up and report measured lymphocyte in bronchoalveolar lavage fluid for this entry: CC(C)=CCC[C@](C)(O[C@@H]1OC(CO)[C@@H](O)[C@H](O)C1O)C1CC[C@]2(C)C1/C(=N\O)CC1[C@@]3(C)CC/C(=N\O)C(C)(C)C3CC[C@]12C (stereo partly shown) [IVA]
# output 15.35
